- ASSAY SUMMARY: protein stability index of a GFP-peptide fusion (yeast GPS) (PSI 1-4); higher = more stable; sorted into four equal gates, so the index is relative within each strain
- CONDITION: ubr1∆
QUANTITY NAME: protein stability index

sequence_code="ATRHVLMRQGVLGIKVK [RPS3]" result_value=2.07
sequence_code="IGSNGSGKSNFFAAIRF [SMC3]" result_value=3.05
sequence_code="QYYRGLPLYEKNTLLER [SWP82]" result_value=3.13

In the following, a different sequence is considered.
Sample RAKSSSHLFNEYSYVDS [RPN4] — what was its protein stability index?
2.63

----------
- ASSAY SUMMARY: protein stability index of a GFP-peptide fusion (yeast GPS) (PSI 1-4); higher = more stable; sorted into four equal gates, so the index is relative within each strain
- CONDITION: pdr5∆
QUANTITY NAME: protein stability index
Answer using only a numeral; do not append any unit.

Completed entries (count: 10):
sequence_code="STGAADGGYNAQLAKAK [SMC2]" result_value=3.47
sequence_code="NGALDPKMGVSSSSLEC [RPO31]" result_value=3.41
sequence_code="NIKLLNNRMGSYDCTGV [POP1]" result_value=2.8
sequence_code="DQKPIEHIKEGSEIAIS [SWI3]" result_value=3.21
sequence_code="EKDAVSVFGFRTQFGGG [RPS24A]" result_value=2.09
sequence_code="DQFIRHVLRGVESPDKN [YCG1]" result_value=3.77
sequence_code="NVKEITEKLKISPESVF [SMC3]" result_value=2.18
sequence_code="RRRSSTNKSKRPSITEA [MED1]" result_value=3.15
sequence_code="ATTGGGLFGNKPNNTAN [YGL172W/NUP49]" result_value=3.29
sequence_code="TDQLIQNIETRQLANLI [NUT1]" result_value=3.14

Need protein stability index, item EFTENELNVDSMDVDDK [ITC1]
3.24

Look up protein stability index for this sequence: ASINTSATVKTSDLLGS [ECM29]
2.96

If you can, please state the reported protein stability index value of GNAVTVTEDGTVVTVVS [RPL22A] .
1.67

Query: protein stability index; subject: GEFSGKNFSPTKRVEKP [RRP6]
2.47
